These entries and their values trace back to patent US20260209320A1.

system tested: T1, Mutant Human HTT Exon 1 48Q (GST) (human)
T1 construct: recombinant His- and GST-tagged fusion; also called HTT Exon 1 Q48; 48Q HTT Exon-1
T1 sequence (chain, as listed by the source mutant limits assumed): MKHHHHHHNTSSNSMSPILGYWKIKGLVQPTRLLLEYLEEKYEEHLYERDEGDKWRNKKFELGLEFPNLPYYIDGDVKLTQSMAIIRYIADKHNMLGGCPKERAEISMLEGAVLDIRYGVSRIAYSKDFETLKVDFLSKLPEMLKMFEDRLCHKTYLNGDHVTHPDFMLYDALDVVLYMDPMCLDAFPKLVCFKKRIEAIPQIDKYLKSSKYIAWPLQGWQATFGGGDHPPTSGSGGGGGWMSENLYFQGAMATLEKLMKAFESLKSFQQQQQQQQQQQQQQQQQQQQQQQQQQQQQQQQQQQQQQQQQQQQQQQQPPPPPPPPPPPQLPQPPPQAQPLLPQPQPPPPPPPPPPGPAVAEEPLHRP
measurement protocol: HTT sandwich ELISA, experiment 2 (400 nM starting concentration)
readout type: EC50 (nM)
Response body: numeric value in nM, unit text excluded.

Suppose we examine the binder ATL_0006203 (antibody, V domains shown, expressed in IgG1 format; also called ATL_6203) VH: EVQLVESGGGLVKPGGSLRLSCAASGFTFNKAWMSWVRQAPGKGLEWVGRIKSGIDAGTTDYAAPVKGRFTISRDDSKNTLYLQMNSLKTEDTAVYYCIPSPYYYYYGLDVWGQGTTVTVSS VL: QSALTQPRSVSGSPGQSVTISCTGTSSDVGSYNLVSWYQQHPGKAPKLMIYEVNKRPSGVPDRFSGSKSGATASLTISGLQAEDEADYYCVSYAGTANVFGTGTKVTVL ; what EC50 value has been reported?
8.72

Same question, ATL_0006204 (antibody, V domains shown, expressed in IgG1 format; also called ATL_6204) VH: EVQLVESGGGLVKPGGSLRLSCAASGFTFNKAWMSWVRQAPGKGLEWVGRIKSGIDAGTTDYAAPVKGRFTISRDDSKNTLYLQMNSLKTEDTAVYYCIPPPYYYYYGLDVWGQGTTVTVSS VL: QSALTQPRSVSGSPGQSVTISCTGTSSDVGSYNLVSWYQQHPGKAPKLMIYEVNKRPSGVPDRFSGSKSGATASLTISGLQAEDEADYYCVSFAGTANVFGTGTKVTVL this time
12.2

Same question, ATL_0006199 (antibody, V domains shown, expressed in IgG1 format; also called ATL_6199) VH: EVQLVESGGGLVKPGGSLRLSCAASGFTFNKAWMSWVRQAPGKGLEWVGRIKSGIDAGTTDYAAPVKGRFTISRDDSKNTLYLQMNSLKTEDTAVYWCSPPPYYYYYGLDVWGQGTTVTVSS VL: QSALTQPRSVSGSPGQSVTISCTGTSSDVGSYNLVSWYQQHPGKAPKLMIYEVNKRPSGVPDRFSGSKSGATASLTISGLQAEDEADYYCGSYAGTANVFGTGTKVTVL this time
13.1
